- tested.on: EGFR V3 (Homo sapiens, UniProt P00533, DELINS30-297G)
- Construct: expressed in transfected cells; host or cells: BaF3 (murine pro-B), retroviral pMXs-IRES-Blasticidin
- Sequence (P00533 with tags, fused parts or gaps DELINS30-297G): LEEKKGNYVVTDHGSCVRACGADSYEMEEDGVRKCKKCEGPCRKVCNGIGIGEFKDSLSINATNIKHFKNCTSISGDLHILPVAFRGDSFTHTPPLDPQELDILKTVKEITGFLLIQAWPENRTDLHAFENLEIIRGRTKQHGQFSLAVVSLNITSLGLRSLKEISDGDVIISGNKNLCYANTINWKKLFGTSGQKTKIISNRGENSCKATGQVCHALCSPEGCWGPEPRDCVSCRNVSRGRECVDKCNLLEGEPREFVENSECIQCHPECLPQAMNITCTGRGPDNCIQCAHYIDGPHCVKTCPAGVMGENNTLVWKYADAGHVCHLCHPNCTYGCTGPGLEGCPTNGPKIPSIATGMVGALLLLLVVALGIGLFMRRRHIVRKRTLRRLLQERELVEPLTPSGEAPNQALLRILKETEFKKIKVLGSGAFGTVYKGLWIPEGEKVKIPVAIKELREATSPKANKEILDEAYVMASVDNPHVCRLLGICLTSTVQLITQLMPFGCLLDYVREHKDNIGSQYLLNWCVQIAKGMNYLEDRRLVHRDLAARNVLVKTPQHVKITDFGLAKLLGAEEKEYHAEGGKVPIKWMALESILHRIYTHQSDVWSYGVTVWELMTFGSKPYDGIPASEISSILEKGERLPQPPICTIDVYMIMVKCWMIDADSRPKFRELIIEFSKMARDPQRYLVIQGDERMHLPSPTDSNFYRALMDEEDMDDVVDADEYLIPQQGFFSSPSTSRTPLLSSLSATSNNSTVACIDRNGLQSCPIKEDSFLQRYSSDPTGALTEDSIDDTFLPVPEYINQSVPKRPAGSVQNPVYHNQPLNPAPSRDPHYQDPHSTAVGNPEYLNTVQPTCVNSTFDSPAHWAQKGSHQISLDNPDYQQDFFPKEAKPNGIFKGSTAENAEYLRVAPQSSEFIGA
- measurement.description: Activity for inhibiting EGFR (Table A), EGFR V3 (EGFR-Viii)
- Format: cell-based
- test.settings: read-out: EGFR V3, potency code (IC50)
quantity.kind: IC50

line.notation	IC50
C=CC(=O)Nc1cc2c(Nc3ccc(OCc4cccc(C)n4)c(Cl)c3)ncnc2cc1OCCN1CCOCC1	100 to 200 nM
C=CC(=O)Nc1cc2c(Nc3ccc(Oc4ccccc4)cc3)ncnc2cc1C#C[C@@H]1[C@H]2CN(C)C[C@@H]12	30 to 50 nM

Input C=CC(=O)Nc1cc2c(Nc3ccc(OCc4cccc(F)c4)c(Cl)c3)ncnc2cc1N(C)CCN1CCOCC1 . Output IC50: 50 to 100 nM

---

- tested.on: HER2 YVMA (Homo sapiens, UniProt P04626, INS775YVMA)
- Construct: expressed in transfected cells; host or cells: BaF3 (murine pro-B)
- Sequence (P04626 with tags, fused parts or gaps INS775YVMA): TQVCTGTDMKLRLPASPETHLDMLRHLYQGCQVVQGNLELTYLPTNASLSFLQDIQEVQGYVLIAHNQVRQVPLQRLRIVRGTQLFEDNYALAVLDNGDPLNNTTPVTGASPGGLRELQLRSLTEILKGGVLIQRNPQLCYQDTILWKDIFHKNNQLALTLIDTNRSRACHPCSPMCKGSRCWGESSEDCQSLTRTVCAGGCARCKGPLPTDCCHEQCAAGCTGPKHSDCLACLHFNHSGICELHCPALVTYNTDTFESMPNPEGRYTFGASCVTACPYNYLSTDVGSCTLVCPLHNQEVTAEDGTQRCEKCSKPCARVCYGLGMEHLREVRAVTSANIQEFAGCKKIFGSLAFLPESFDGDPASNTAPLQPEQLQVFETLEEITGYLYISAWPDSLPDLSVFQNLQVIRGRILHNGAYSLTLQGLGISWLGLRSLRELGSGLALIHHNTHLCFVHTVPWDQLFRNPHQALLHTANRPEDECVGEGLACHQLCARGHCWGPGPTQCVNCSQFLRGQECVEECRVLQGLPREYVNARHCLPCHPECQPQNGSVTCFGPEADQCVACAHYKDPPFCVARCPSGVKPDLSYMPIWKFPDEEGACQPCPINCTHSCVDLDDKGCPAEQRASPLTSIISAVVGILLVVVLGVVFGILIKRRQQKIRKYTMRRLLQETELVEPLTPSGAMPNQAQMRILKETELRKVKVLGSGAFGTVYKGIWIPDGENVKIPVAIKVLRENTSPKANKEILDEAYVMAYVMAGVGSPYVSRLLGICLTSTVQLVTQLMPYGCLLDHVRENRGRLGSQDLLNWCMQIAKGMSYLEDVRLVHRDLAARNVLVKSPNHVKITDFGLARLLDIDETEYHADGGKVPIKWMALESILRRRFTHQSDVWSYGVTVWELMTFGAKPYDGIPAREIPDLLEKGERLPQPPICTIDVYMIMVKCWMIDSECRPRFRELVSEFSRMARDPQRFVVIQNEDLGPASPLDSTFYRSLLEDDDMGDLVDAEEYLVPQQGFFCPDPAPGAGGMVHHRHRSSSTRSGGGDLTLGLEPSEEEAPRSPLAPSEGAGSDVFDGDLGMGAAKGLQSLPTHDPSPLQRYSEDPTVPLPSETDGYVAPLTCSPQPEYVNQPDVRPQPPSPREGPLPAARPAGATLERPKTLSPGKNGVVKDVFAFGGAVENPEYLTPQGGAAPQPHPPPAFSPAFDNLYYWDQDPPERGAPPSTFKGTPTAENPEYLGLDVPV
- measurement.description: Activity for inhibiting HER2 (Table B), HER2 YVMA
- Type: cell-based
- test.settings: read-out: HER2 YVMA, potency code (IC50)
pIC50: −log10 of the molar value.
Exercise: for every item that follows, state its recorded pIC50.

line.notation	quantity.kind	measured.result
C=CC(=O)Nc1cc2c(Nc3ccc(OCc4ccccn4)c(Cl)c3)ncnc2cc1OCCCN1CCCC1	pIC50	7.30 to 7.52
C=CC(=O)Nc1cc2c(Nc3ccc(OCc4ccccn4)c(Cl)c3)ncnc2cc1OC[C@H]1COCCN1	pIC50	6.70 to 7.00

Lab note: each molecule below needs its pIC50 filled in.
1. C=CC(=O)Nc1cc2c(Nc3ccc(OCc4cccc(F)n4)c(Cl)c3)ncnc2cc1OCCN1CC2CCC(C1)O2
2. C=CC(=O)Nc1cc2c(Nc3ccc(OCc4ccccn4)c(Cl)c3)ncnc2cc1OCCCN1CCOCC1
3. C=CC(=O)Nc1cc2c(Nc3ccc(OCc4ccccn4)c(Cl)c3)ncnc2cc1C#C[C@@H]1CCCN1C

1: 6.52 to 6.70; 2: 7.52 to 7.70; 3: 6.52 to 6.70

---

Exercise: for every item that follows, state its recorded pIC50.
- tested.on: EGFR WT (Homo sapiens)
- Sequence (P00533 25-1210 N540K): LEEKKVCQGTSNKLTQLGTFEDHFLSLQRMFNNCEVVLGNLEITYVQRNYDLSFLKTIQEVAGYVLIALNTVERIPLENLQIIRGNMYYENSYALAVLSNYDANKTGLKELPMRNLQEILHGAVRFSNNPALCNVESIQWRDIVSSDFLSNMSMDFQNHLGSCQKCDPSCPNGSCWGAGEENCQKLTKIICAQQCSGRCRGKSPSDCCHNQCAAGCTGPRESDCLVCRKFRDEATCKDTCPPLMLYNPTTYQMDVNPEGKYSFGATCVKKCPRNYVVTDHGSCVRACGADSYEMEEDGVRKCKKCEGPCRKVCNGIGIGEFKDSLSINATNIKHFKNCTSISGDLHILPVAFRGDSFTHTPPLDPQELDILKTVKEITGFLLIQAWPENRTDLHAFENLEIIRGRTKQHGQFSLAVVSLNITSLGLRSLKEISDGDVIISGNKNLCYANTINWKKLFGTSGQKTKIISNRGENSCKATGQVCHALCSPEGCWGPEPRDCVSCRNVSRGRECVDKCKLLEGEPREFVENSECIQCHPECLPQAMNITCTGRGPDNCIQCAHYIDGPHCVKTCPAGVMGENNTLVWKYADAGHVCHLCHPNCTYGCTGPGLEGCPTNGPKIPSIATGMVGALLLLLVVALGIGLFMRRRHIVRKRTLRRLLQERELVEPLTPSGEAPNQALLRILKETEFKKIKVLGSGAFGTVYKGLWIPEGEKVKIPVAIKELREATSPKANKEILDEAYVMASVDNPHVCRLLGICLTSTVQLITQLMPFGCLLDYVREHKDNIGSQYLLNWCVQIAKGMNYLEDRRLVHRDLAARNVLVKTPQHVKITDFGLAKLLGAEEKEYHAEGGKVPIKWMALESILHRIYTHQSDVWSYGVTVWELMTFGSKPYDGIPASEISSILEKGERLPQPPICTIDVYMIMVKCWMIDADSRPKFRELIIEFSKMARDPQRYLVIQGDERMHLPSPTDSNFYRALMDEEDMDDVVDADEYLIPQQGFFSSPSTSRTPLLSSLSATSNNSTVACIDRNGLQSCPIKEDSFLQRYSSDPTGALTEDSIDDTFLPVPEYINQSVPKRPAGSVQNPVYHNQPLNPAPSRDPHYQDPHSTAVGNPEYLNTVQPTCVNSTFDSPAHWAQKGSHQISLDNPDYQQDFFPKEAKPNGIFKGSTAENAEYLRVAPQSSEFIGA
- measurement.description: Activity for inhibiting EGFR (Table A), EGFR WT
- Type: cell-based
- test.settings: read-out: EGFR WT, potency code (IC50)
pIC50: −log10 of the molar value.

The following compounds have reported results that may help.
compound	tested.on	quantity.kind	measured.result
C=CC(=O)Nc1cc2c(Nc3cc(Cl)c(OCc4cccc(F)c4)cc3F)ncnc2cc1O[C@@H]1CCN(C)C1 [compound 133]	EGFR WT (Homo sapiens)	pIC50	6.52 to 6.70
C=CC(=O)Nc1cc2c(Nc3ccc(OCc4ccccn4)c(Cl)c3)c(C#N)cnc2cc1OCCN1CCOCC1 [compound 11]	EGFR WT (Homo sapiens)	pIC50	6.30 to 6.52
C=CC(=O)Nc1cc2c(Nc3ccc(OCc4ccccn4)c(Cl)c3)ncnc2cc1OC1CC(N(C)C)C1 (centres unmarked) [compound 62]	EGFR WT (Homo sapiens)	pIC50	6.30 to 6.52
C=CC(=O)Nc1cc2c(Nc3ccc(Oc4ccccc4)c(Cl)c3)ncnc2cc1O[C@@H]1CCN(C)C1 [compound 91]	EGFR WT (Homo sapiens)	pIC50	6.00 to 6.30
CC#CC(=O)Nc1cc2c(Nc3ccc(OCc4ccccn4)c(Cl)c3)ncnc2cc1C#CC1[C@H]2CN(C)C[C@@H]12 (some centres unmarked) [compound 107]	EGFR WT (Homo sapiens)	pIC50	6.52 to 6.70
C=CC(=O)Nc1cc2c(Nc3ccc(OCc4ccccn4)c(Cl)c3)ncnc2cc1OCCCN1CCCC1 [compound 22]	EGFR WT (Homo sapiens)	pIC50	7.00 to 7.30
CC#CC(=O)Nc1cc2c(Nc3ccc(OCc4cccnn4)c(Cl)c3)ncnc2cc1OCCCN1CCOCC1 [compound 165]	EGFR WT (Homo sapiens)	pIC50	6.70 to 7.00
C=CC(=O)Nc1cc2c(Nc3ccc(OCc4ccccn4)c(Cl)c3)ncnc2cc1OCCN1CC2CCC(C1)O2 [compound 36]	EGFR WT (Homo sapiens)	pIC50	< 6.00
C=CC(=O)Nc1cc2c(Nc3ccc(OCc4ccccn4)c(Cl)c3)ncnc2cc1OCC1CCCN1 (centres unmarked) [compound 13]	EGFR WT (Homo sapiens)	pIC50	6.30 to 6.52
C=CC(=O)Nc1cc2c(Nc3ccc(OCc4cccc(C)n4)c(Cl)c3)ncnc2cc1OCCN1CC2CCC(C1)O2 [compound 132]	EGFR WT (Homo sapiens)	pIC50	< 6.00

Lab note: each compound below needs its pIC50 filled in.
1. C=CC(=O)Nc1cc2c(Nc3ccc(Oc4cccc(Cl)c4)cc3)ncnc2cc1OCCN1CCOCC1 [compound 37]
2. C=CC(=O)Nc1cc2c(Nc3ccc(OCc4ccccn4)c(Cl)c3)ncnc2cc1N1CC(N(C)C)C1 [compound 93]
3. C=CC(=O)Nc1cc2c(Nc3ccc(OCc4ccccn4)cn3)ncnc2cc1OCCN1CCOCC1 [compound 58]
4. C=CC(=O)Nc1cc2c(Nc3ccc(OCc4ccccn4)c(Cl)c3)ncnc2cc1OCCN1CC(F)C1 [compound 34]

["< 6.00", "< 6.00", "< 6.00", "6.00 to 6.30"]
